- experiment: Half life in rhesus monkey at 1 mg/kg, iv
- condition-label: in vivo
observable: half-life
Value and unit, in that order.

Can you share its half-life? I mean this molecule: Cc1nc([C@@H]2N[C@@H](c3nc(-c4ccc(F)cc4)c[nH]3)Cc3c2[nH]c2ccccc32)no1 8.08 h

* * *

- experiment: Clearance in mouse at 4 mg/kg, iv
- condition-label: in vivo
I'd appreciate it if you could supply clearance values for the items below.
Answer format: value, then unit.

For the compound shown here, Cn1cc([C@@H]2N[C@@H](c3nc(-c4ccc(F)cc4)c[nH]3)Cc3c2[nH]c2ccccc32)cn1 , give the reported clearance. 99.6 mL/min/kg

Could you tell me which clearance is on file for Cc1nc([C@@H]2N[C@@H](c3nc(-c4ccc(F)cc4)c[nH]3)Cc3c2[nH]c2ccccc32)no1 ? 39.9 mL/min/kg

* * *

Give measured Vd for each item. Keep answers brief.
- experiment: Volume of distribution at steady state in rat at 2 mg/kg, po and 1 mg/kg, iv
- condition-label: in vivo

Which value of Vd has been reported for Cc1nc([C@@H]2N[C@@H](c3nc(-c4ccc(F)cc4)c[nH]3)Cc3c2[nH]c2ccccc32)no1 in the records? 5.83 L/kg

Entry under review: Cn1cc([C@@H]2N[C@@H](c3nc(-c4ccc(F)cc4)c[nH]3)Cc3c2[nH]c2ccccc32)cn1 . Reported Vd? 4.59 L/kg

* * *

Provide the reported inhibition of each item.
- experimental-system: UniProt P30935
- experiment: Inhibition of mouse SSTR3 transfected in CHO cells assessed as inhibition of SRIF-induced reduction of cAMP accumulation after 45 mins relative to control
- Assay type: functional, cell-based
- Parameters: concentration or dose not given beside the values
Just the number in %, nothing appended.

Param readout = inhibition; param system = UniProt P30935; param query = Cn1cc(C2(c3cnn(C)c3)N[C@@H](c3nc(-c4ccc(F)cc4)c[nH]3)Cc3c2[nH]c2ccccc32)cn1 ; response: value 113

API: value(readout=inhibition, system=UniProt P30935) for record Cc1nc([C@H]2N[C@@H](c3nc(-c4ccc(F)cc4)c[nH]3)Cc3c2[nH]c2ccccc32)no1 103

Lab note: need inhibition for Cc1nc(C2(c3noc(C)n3)N[C@@H](c3nc(-c4ccc(F)cc4)c[nH]3)Cc3c2[nH]c2ccccc32)no1 on UniProt P30935, anyone have it? 133

Provide the documented inhibition with UniProt P30935 as the system for Cc1nc([C@]2(c3cnn(C)c3)N[C@@H](c3nc(-c4ccc(F)cc4)c[nH]3)Cc3c2[nH]c2ccccc32)no1 87

Short answer please: inhibition, UniProt P30935, entry Cc1nc([C@@H]2N[C@@H](c3nc(-c4ccc(F)cc4)c[nH]3)Cc3c2[nH]c2ccccc32)no1 92

Entry Fc1ccc(-c2c[nH]c([C@H]3Cc4c([nH]c5ccccc45)C(c4ccccc4)(c4ccccc4)N3)n2)cc1 , system UniProt P30935: what inhibition was measured? 101

# returns recorded inhibition (system: UniProt P30935) for c1ccc(-c2c[nH]c([C@H]3Cc4c([nH]c5ccccc45)[C@@H](C4CCOCC4)N3)n2)cc1 98

Form: Entry = Fc1ccc(-c2c[nH]c([C@H]3Cc4c([nH]c5ccccc45)[C@@H](C4CCOCC4)N3)n2)cc1 | System = UniProt P30935 | inhibition = ____ 108

What value of inhibition on UniProt P30935 does Cc1nc([C@]2(c3cnn(C)c3)N[C@H](c3nc(-c4ccc(F)cc4)c[nH]3)Cc3c2[nH]c2ccccc32)no1 have? 68

Reported inhibition for UniProt P30935, given Cc1nc([C@@]2(c3cnn(C)c3)N[C@H](c3nc(-c4ccc(F)cc4)c[nH]3)Cc3c2[nH]c2ccccc32)no1 ? 92

Under UniProt P30935: inhibition value of Cn1cc([C@@H]2N[C@@H](c3nc(-c4ccc(F)cc4)c[nH]3)Cc3c2[nH]c2ccccc32)cn1 ? 66

Query the reported inhibition for UniProt P30935; item: Cn1cc([C@H]2N[C@@H](c3nc(-c4ccc(F)cc4)c[nH]3)Cc3c2[nH]c2ccccc32)cn1 67

Under UniProt P30935: inhibition value of Cc1nc([C@@]2(c3cnn(C)c3)N[C@@H](c3nc(-c4ccc(F)cc4)c[nH]3)Cc3c2[nH]c2ccccc32)no1 ? 130

* * *

- experiment: in vivo
- condition-label: rat, plasma, po, 2 mg/kg
observable: AUC(0-t) (µM·h)
Provide only the numeric value, understood in µM·h.

Item under review: Cc1nc([C@@H]2N[C@@H](c3nc(-c4ccc(F)cc4)c[nH]3)Cc3c2[nH]c2ccccc32)no1 . Reported AUC(0-t)? 4.36

So what does the record say about AUC(0-t) for Cn1cc([C@@H]2N[C@@H](c3nc(-c4ccc(F)cc4)c[nH]3)Cc3c2[nH]c2ccccc32)cn1 ? 1.38

* * *

- experiment: in vivo
- condition-label: rhesus monkey, po, 2 mg/kg
observable: bioavailability
Answer with the value and then the unit.

# bioavailability lookup, item Cc1nc([C@@H]2N[C@@H](c3nc(-c4ccc(F)cc4)c[nH]3)Cc3c2[nH]c2ccccc32)no1 51%

* * *

Give measured pKi for each item. Keep answers brief.
- experimental-system: Voltage-gated inwardly rectifying potassium channel KCNH2 (Homo sapiens, UniProt Q12809)
- Sequence (Q12809 whole entry): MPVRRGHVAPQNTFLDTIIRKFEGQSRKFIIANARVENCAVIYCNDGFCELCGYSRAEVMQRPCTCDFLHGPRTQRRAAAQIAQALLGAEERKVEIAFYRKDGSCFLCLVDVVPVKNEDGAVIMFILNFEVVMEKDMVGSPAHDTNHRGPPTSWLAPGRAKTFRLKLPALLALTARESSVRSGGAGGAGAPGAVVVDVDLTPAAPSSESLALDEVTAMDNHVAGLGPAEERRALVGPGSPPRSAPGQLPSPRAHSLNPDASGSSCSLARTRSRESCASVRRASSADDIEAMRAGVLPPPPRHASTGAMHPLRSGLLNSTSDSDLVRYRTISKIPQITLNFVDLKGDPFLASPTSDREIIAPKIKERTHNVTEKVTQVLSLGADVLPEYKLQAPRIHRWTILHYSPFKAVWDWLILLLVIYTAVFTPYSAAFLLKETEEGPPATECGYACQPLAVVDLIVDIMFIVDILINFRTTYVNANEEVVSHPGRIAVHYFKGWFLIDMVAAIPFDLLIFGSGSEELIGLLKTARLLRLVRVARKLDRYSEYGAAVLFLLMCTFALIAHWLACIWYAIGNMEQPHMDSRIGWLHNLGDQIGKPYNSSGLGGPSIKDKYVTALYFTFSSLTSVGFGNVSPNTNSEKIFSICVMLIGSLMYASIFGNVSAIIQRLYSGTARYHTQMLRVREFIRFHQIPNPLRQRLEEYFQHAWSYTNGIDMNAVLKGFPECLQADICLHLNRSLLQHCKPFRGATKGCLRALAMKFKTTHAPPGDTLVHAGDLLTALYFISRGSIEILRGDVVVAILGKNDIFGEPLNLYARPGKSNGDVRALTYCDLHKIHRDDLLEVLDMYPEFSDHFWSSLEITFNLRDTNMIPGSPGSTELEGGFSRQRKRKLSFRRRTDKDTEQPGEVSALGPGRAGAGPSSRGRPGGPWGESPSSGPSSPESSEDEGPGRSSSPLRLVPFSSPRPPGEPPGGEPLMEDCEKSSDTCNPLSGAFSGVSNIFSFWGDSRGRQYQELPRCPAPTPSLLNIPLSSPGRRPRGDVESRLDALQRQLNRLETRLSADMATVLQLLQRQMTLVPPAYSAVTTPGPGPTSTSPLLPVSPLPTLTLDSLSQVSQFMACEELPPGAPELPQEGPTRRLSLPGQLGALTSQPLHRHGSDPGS
Schema: pKi number; meaning minus log10 of the concentration expressed in molar units.

Item under review: Cc1nc([C@@H]2N[C@@H](c3nc(-c4ccc(F)cc4)c[nH]3)Cc3c2[nH]c2ccccc32)no1 . Reported pKi? 5.66

Entry Cc1nc([C@H]2N[C@@H](c3nc(-c4ccc(F)cc4)c[nH]3)Cc3c2[nH]c2ccccc32)no1 has what pKi? 6.41

Looking for the measured pKi of Cn1cc([C@H]2N[C@@H](c3nc(-c4ccc(F)cc4)c[nH]3)Cc3c2[nH]c2ccccc32)cn1 , can you help? 6.52

pKi for Fc1ccc(-c2c[nH]c([C@H]3Cc4c([nH]c5ccccc45)C(c4ccccc4)(c4ccccc4)N3)n2)cc1 ? 7.36

Requested read-out: pKi. Entry: Cn1cc([C@@H]2N[C@@H](c3nc(-c4ccc(F)cc4)c[nH]3)Cc3c2[nH]c2ccccc32)cn1 5.66

* * *

- experimental-system: UniProt:P30935
- experiment: biochemical
- Description: Displacement of [125I]SS-28 from mouse SSTR3 transfected in CHO cells after 60 to 90 mins
Returns: string. Value is TRUE if measured IC50 is below 4 nM, and FALSE if it is greater than or equal to it.

Determine if Fc1ccc(-c2c[nH]c([C@H]3Cc4c([nH]c5ccccc45)[C@@H](C4CCOCC4)N3)n2)cc1 shows IC50 strictly lower than 4 nM. TRUE

Quick check: IC50 of Cc1nc(C2(c3noc(C)n3)N[C@@H](c3nc(-c4ccc(F)cc4)c[nH]3)Cc3c2[nH]c2ccccc32)no1 under 4 nM? TRUE

Report whether reported IC50 is lower than 4 nM (strictly) for Cc1nc([C@@H]2N[C@@H](c3nc(-c4ccc(F)cc4)c[nH]3)Cc3c2[nH]c2ccccc32)no1 FALSE

Dear colleague, could you confirm whether IC50 of Cn1cc(C2(c3cnn(C)c3)N[C@@H](c3nc(-c4ccc(F)cc4)c[nH]3)Cc3c2[nH]c2ccccc32)cn1 falls below 4 nM? Thanks. TRUE

In the record for Cn1cc([C@@H]2N[C@@H](c3nc(-c4ccc(F)cc4)c[nH]3)Cc3c2[nH]c2ccccc32)cn1 , is IC50 less than 4 nM? FALSE

* * *

Answer each item with its documented half-life.
- experiment: Half life in mouse at 4 mg/kg, iv
- condition-label: in vivo
Numeric only. Scale: h

Name the reported half-life value associated with the molecule Cn1cc([C@@H]2N[C@@H](c3nc(-c4ccc(F)cc4)c[nH]3)Cc3c2[nH]c2ccccc32)cn1 2.24

Which measured half-life value corresponds to Cc1nc([C@@H]2N[C@@H](c3nc(-c4ccc(F)cc4)c[nH]3)Cc3c2[nH]c2ccccc32)no1 ? 2.58

* * *

- experiment: Volume of distribution at steady state in rhesus monkey at 1 mg/kg, iv and 2 mg/kg, po
- condition-label: in vivo
observable: Vd
Don't forget the unit after the number, please.

Value lookup for Vd; key = Cc1nc([C@@H]2N[C@@H](c3nc(-c4ccc(F)cc4)c[nH]3)Cc3c2[nH]c2ccccc32)no1 1.75 L/kg

* * *

- experiment: in vivo
- condition-label: rhesus monkey, plasma, po, 2 mg/kg
observable: AUC(0-t) (µM·h)
Give the quantity in µM·h, number only.

Value lookup for AUC(0-t); key = Cc1nc([C@@H]2N[C@@H](c3nc(-c4ccc(F)cc4)c[nH]3)Cc3c2[nH]c2ccccc32)no1 12.4

* * *

- experiment: Plasma concentration in C57BL/6 mouse at 10 mg/kg, po measured after 2.5 hrs
- Assay type: ADME, organism-based
- Parameters: dose 10 mg/kg, route oral
observable: log10 concentration at 2.5 h (log10 of the value in nM)
log10 concentration at 2.5 h, nM

What does the data say about its log10 concentration at 2.5 h? Entry: c1ccc(-c2c[nH]c([C@H]3Cc4c([nH]c5ccccc45)[C@@H](C4CCOCC4)N3)n2)cc1 3.58

# input compound: Fc1ccc(-c2c[nH]c([C@H]3Cc4c([nH]c5ccccc45)[C@@H](C4CCOCC4)N3)n2)cc1 ; wanted: its log10 concentration at 2.5 h 3.66

# get_value(readout='log10 concentration at 2.5 h', item= Cc1nc([C@@H]2N[C@@H](c3nc(-c4ccc(F)cc4)c[nH]3)Cc3c2[nH]c2ccccc32)no1 ) 2.30

Dear colleague, I am looking for the recorded log10 concentration at 2.5 h of the following compound: Cn1cc([C@H]2N[C@@H](c3nc(-c4ccc(F)cc4)c[nH]3)Cc3c2[nH]c2ccccc32)cn1 3.08

Which log10 concentration at 2.5 h is listed for Cn1cc([C@@H]2N[C@@H](c3nc(-c4ccc(F)cc4)c[nH]3)Cc3c2[nH]c2ccccc32)cn1 ? 3.20
